assay: Human HepG2 cell viability assay in 384 well format; type: toxicity, cell-based; design: dose 125 nL, time 70.5 hour; concentration not given beside the values; conditions: HepG2 cells, read-out: Inhibition
Exercise: state measured cytotoxicity at 70.5 h for each of the molecules provided.
API: value field is a number in %; no unit string.

Input: Using the record for COc1ccc(C(C)(C)C)cc1CN1CCn2c(CO)nnc2C1 , report its cytotoxicity at 70.5 h.
Output: 6.88

Input: Consider the molecule shown here: CCn1c(N)nc2cc(C(=O)N3CCCN(C)CC3)cnc21 What is its recorded cytotoxicity at 70.5 h?
Output: 3.17

Input: Bench note: what cytotoxicity at 70.5 h did COc1ccc2c(c1)CC(NCCCn1cc(C)cn1)CC2 (centres undefined) show?
Output: 1.45

Input: Find the recorded cytotoxicity at 70.5 h belonging to O=C1CCNc2ccccc2CN1Cc1ccco1 and report it.
Output: -6.23

Input: # cytotoxicity at 70.5 h lookup, item Cc1ccc(C(=O)N2CCCC2c2nnc3n2CCCCC3)o1 (centres undefined)
Output: -7.2

Input: // returns reported cytotoxicity at 70.5 h for input Cc1nn2cccnc2c1C(=O)N1CCCC(n2ccnc2)C1 (centres undefined)
Output: -4.78

Input: Need cytotoxicity at 70.5 h, item CS(=O)(=O)NCC1CCCN(C(=O)c2cc3ccccc3o2)C1 (centres undefined)
Output: -3.7

Input: What does the data say about its cytotoxicity at 70.5 h? Entry: CNC(=O)C(C)(C)N1CCC[C@H]1C(=O)NC1CCCC1
Output: -0.301

Input: Which cytotoxicity at 70.5 h value belongs to CCCN(CCC)c1ncc(S(=O)(=O)c2ccccc2)c(N)n1 ?
Output: -15.1

Input: What value of cytotoxicity at 70.5 h has been reported for the following molecule? CCNc1cc2c(nn1)CCN(C(=O)c1c(C)noc1C)C2
Output: -2.94

Input: Quick check: cytotoxicity at 70.5 h of O=C(Cn1ccnc1)N1C[C@@H]2CC[C@H](Oc3ccccc3)[C@@H]2C1 ?
Output: -3

Input: Request the reported cytotoxicity at 70.5 h associated with Cc1ccc(CN(Cc2ncc[nH]2)C2CC(C)(C)NC(C)(C)C2)o1
Output: 9.13

Input: Which cytotoxicity at 70.5 h is listed for c1cncc(-c2nc(C3CC3)ncc2-c2ccnc(N3CCCC3)n2)c1 ?
Output: -2.86

Input: Which cytotoxicity at 70.5 h reading was recorded for the molecule O=C(CCc1ccc(Br)cc1)NCCc1nnc[nH]1 ?
Output: -11.9

Input: Please report the recorded cytotoxicity at 70.5 h for O=C(Cn1nc(N2CCOCC2)ccc1=O)Nc1nccs1 .
Output: 15

Input: What cytotoxicity at 70.5 h value was documented for this molecule, CC(C)(C)c1n[nH]c(C2CN(C(=O)c3ccsc3)CCO2)n1 (centres undefined) ?
Output: -16.5

Input: Recorded cytotoxicity at 70.5 h for COc1ccc(C(C)NCc2c[nH]nc2C)cc1Br (centres undefined) , please?
Output: -6.07

Input: What cytotoxicity at 70.5 h value was documented for this molecule, COc1ccccc1OCC(=O)Nc1ncccc1Cl ?
Output: -0.838

Input: Which cytotoxicity at 70.5 h is listed for O=C(Nc1cccnc1)[C@H]1CO[C@H]2CCN(c3ncc(F)cn3)C[C@H]2C1 ?
Output: 4.85

Data provenance is ChEMBL document CHEMBL3507680.
